Source listed as the supplement of paper PMC9112550.

Test system: Escherichia coli TOP10
Test: shrunken log2 fold change of peptide-encoding DNA abundance (4.5 h post-induction vs induction); higher = less antimicrobial activity (less host growth inhibition)
Conditions: time post-induction: 4.5 h; library: site-saturation at positions 5, 18, 19, 20
Measured shrunken log2 fold change of individual entries
Answer using only a numeral; do not append any unit.

SEQ | shrunken log2 fold change
RRIRWRPPRLPRPRPRPADGPRP | 0.0472
RRIRWRPPRLPRPRPRPWGPPRP | 0.384
RRIRYRPPRLPRPRPRPCQQPRP | -0.163

Q) Hello, please tell me recorded shrunken log2 fold change for this one: `RRIRGRPPRLPRPRPRPVMIPRP`
A) 0.157

Q) Hello, please tell me recorded shrunken log2 fold change for this one: `RRIRHRPPRLPRPRPRPQFEPRP`
A) -0.0276

Q) Hello, please tell me recorded shrunken log2 fold change for this one: `RRIRERPPRLPRPRPRPECTPRP`
A) 0.187

Q) Hello, please tell me recorded shrunken log2 fold change for this one: `RRIRPRPPRLPRPRPRPNTPPRP`
A) -0.153

Q) Hello, please tell me recorded shrunken log2 fold change for this one: `RRIRMRPPRLPRPRPRPAEYPRP`
A) 0.0354

Q) Hello, please tell me recorded shrunken log2 fold change for this one: `RRIRTRPPRLPRPRPRPEMMPRP`
A) -0.0411

Q) Hello, please tell me recorded shrunken log2 fold change for this one: `RRIRGRPPRLPRPRPRPSPTPRP`
A) 0.828

Q) Hello, please tell me recorded shrunken log2 fold change for this one: `RRIRGRPPRLPRPRPRPVKCPRP`
A) -0.118

###

Measured shrunken log2 fold change of individual entries
Tested on: Escherichia coli TOP10
Assay: shrunken log2 fold change of peptide-encoding DNA abundance (4.5 h post-induction vs induction); higher = less antimicrobial activity (less host growth inhibition)
Details: time post-induction: 4.5 h; library: site-saturation at positions 5, 18, 19, 20
Answer using only a numeral; do not append any unit.

Sample answers from the record:
SEQ | shrunken log2 fold change
RRIRYRPPRLPRPRPRPWKHPRP | -0.0695
RRIRVRPPRLPRPRPRPYVPPRP | -0.398
RRIRYRPPRLPRPRPRPDRIPRP | -0.00973
RRIRVRPPRLPRPRPRPDNPPRP | -0.101
RRIRGRPPRLPRPRPRPSCFPRP | 0.504

From here, focus on the item given below.
Q) Hello, please tell me recorded shrunken log2 fold change for this one: `RRIRLRPPRLPRPRPRPDAPPRP`
A) 0.313

###

System: Escherichia coli TOP10
Assay: shrunken log2 fold change of peptide-encoding DNA abundance (4.5 h post-induction vs induction); higher = less antimicrobial activity (less host growth inhibition)
Conditions: time post-induction: 4.5 h; library: site-saturation at positions 5, 18, 19, 20
READOUT LABEL: shrunken log2 fold change
Answer using only a numeral; do not append any unit.

Sample answers from the record:
SEQ | MEASURED ON | READOUT LABEL | OBSERVED VALUE
RRIRKRPPRLPRPRPRPGNQPRP | Escherichia coli TOP10 | shrunken log2 fold change | 0.0471
RRIRVRPPRLPRPRPRPCFEPRP | Escherichia coli TOP10 | shrunken log2 fold change | -0.0173
RRIRNRPPRLPRPRPRPLVQPRP | Escherichia coli TOP10 | shrunken log2 fold change | -0.28
RRIRTRPPRLPRPRPRPTTVPRP | Escherichia coli TOP10 | shrunken log2 fold change | -0.271
RRIRCRPPRLPRPRPRPEALPRP | Escherichia coli TOP10 | shrunken log2 fold change | 0.0749
RRIRQRPPRLPRPRPRPKDCPRP | Escherichia coli TOP10 | shrunken log2 fold change | -0.00225

Q) Hello, please tell me recorded shrunken log2 fold change for this one: `RRIRRRPPRLPRPRPRPPYDPRP`
A) 0.213

Q) Hello, please tell me recorded shrunken log2 fold change for this one: `RRIRWRPPRLPRPRPRPRRKPRP`
A) 0.178

###

Measured shrunken log2 fold change of individual entries
Tested on: Escherichia coli TOP10
Assay: shrunken log2 fold change of peptide-encoding DNA abundance (4.5 h post-induction vs induction); higher = less antimicrobial activity (less host growth inhibition)
Settings: time post-induction: 4.5 h; library: site-saturation at positions 5, 18, 19, 20
Answer using only a numeral; do not append any unit.

Sample answers from the record:
SEQ | shrunken log2 fold change
RRIRVRPPRLPRPRPRPCWEPRP | -0.0578
RRIRSRPPRLPRPRPRPYIWPRP | -0.108

Q) Lab note: Escherichia coli TOP10 assay, enter shrunken log2 fold change for `RRIRFRPPRLPRPRPRPCQFPRP` here
A) -0.227

Q) Lab note: Escherichia coli TOP10 assay, enter shrunken log2 fold change for `RRIRRRPPRLPRPRPRPVMMPRP` here
A) -0.0277

Q) Lab note: Escherichia coli TOP10 assay, enter shrunken log2 fold change for `RRIRHRPPRLPRPRPRPVVRPRP` here
A) 0.112

Q) Lab note: Escherichia coli TOP10 assay, enter shrunken log2 fold change for `RRIRERPPRLPRPRPRPVPNPRP` here
A) -0.14

Q) Lab note: Escherichia coli TOP10 assay, enter shrunken log2 fold change for `RRIRWRPPRLPRPRPRPCTNPRP` here
A) -0.0757

Q) Lab note: Escherichia coli TOP10 assay, enter shrunken log2 fold change for `RRIRDRPPRLPRPRPRPHDEPRP` here
A) 0.167

Q) Lab note: Escherichia coli TOP10 assay, enter shrunken log2 fold change for `RRIRMRPPRLPRPRPRPADDPRP` here
A) -0.00235

Q) Lab note: Escherichia coli TOP10 assay, enter shrunken log2 fold change for `RRIRWRPPRLPRPRPRPDIQPRP` here
A) 0.27

Q) Lab note: Escherichia coli TOP10 assay, enter shrunken log2 fold change for `RRIRARPPRLPRPRPRPYEFPRP` here
A) 0.182

Q) Lab note: Escherichia coli TOP10 assay, enter shrunken log2 fold change for `RRIRYRPPRLPRPRPRPDPIPRP` here
A) -0.168

Q) Lab note: Escherichia coli TOP10 assay, enter shrunken log2 fold change for `RRIRARPPRLPRPRPRPAVWPRP` here
A) 0.64

Q) Lab note: Escherichia coli TOP10 assay, enter shrunken log2 fold change for `RRIRERPPRLPRPRPRPNKSPRP` here
A) -0.369

Q) Lab note: Escherichia coli TOP10 assay, enter shrunken log2 fold change for `RRIRMRPPRLPRPRPRPWITPRP` here
A) -0.00122

Q) Lab note: Escherichia coli TOP10 assay, enter shrunken log2 fold change for `RRIRIRPPRLPRPRPRPNQEPRP` here
A) -0.177

Q) Lab note: Escherichia coli TOP10 assay, enter shrunken log2 fold change for `RRIRLRPPRLPRPRPRPPEKPRP` here
A) 0.0964

Q) Lab note: Escherichia coli TOP10 assay, enter shrunken log2 fold change for `RRIRGRPPRLPRPRPRPWPLPRP` here
A) 0.797

Q) Lab note: Escherichia coli TOP10 assay, enter shrunken log2 fold change for `RRIRQRPPRLPRPRPRPNKDPRP` here
A) -0.665

###

Measured shrunken log2 fold change of individual entries
Tested on: Escherichia coli TOP10
Assay: shrunken log2 fold change of peptide-encoding DNA abundance (4.5 h post-induction vs induction); higher = less antimicrobial activity (less host growth inhibition)
Conditions: time post-induction: 4.5 h; library: site-saturation at positions 5, 18, 19, 20
Answer using only a numeral; do not append any unit.

SEQ | READOUT LABEL | OBSERVED VALUE
RRIRARPPRLPRPRPRPHANPRP | shrunken log2 fold change | -0.0153
RRIRYRPPRLPRPRPRPWALPRP | shrunken log2 fold change | -0.355
RRIRVRPPRLPRPRPRPDHEPRP | shrunken log2 fold change | -0.0524
RRIRKRPPRLPRPRPRPYHWPRP | shrunken log2 fold change | -0.164
RRIRYRPPRLPRPRPRPLHQPRP | shrunken log2 fold change | -0.608
RRIRFRPPRLPRPRPRPSNAPRP | shrunken log2 fold change | -0.165

Q) Hello, please tell me recorded shrunken log2 fold change for this one: `RRIRWRPPRLPRPRPRPKATPRP`
A) 0.264

Q) Hello, please tell me recorded shrunken log2 fold change for this one: `RRIRDRPPRLPRPRPRPTVIPRP`
A) -0.118

Q) Hello, please tell me recorded shrunken log2 fold change for this one: `RRIRIRPPRLPRPRPRPHIHPRP`
A) -0.811

###

Test system: Escherichia coli TOP10;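 further: peptides expressed intracellularly from a pBAD plasmid library in pooled LB shake-flask culture, induced with 0.3% L-arabinose, DNA abundance read by NGS, three biological replicates, DESeq2 with apeglm shrinkage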
Test: shrunken log2 fold change of peptide-encoding DNA abundance (4.5 h post-induction vs induction); higher = less antimicrobial activity (less host growth inhibition)
Conditions: time post-induction: 4.5 h; library: site-saturation at positions 5, 18, 19, 20
READOUT LABEL: shrunken log2 fold change
Answer using only a numeral; do not append any unit.

SEQ | MEASURED ON | shrunken log2 fold change
RRIRFRPPRLPRPRPRPEHYPRP | Escherichia coli TOP10 | -0.101
RRIRDRPPRLPRPRPRPEVWPRP | Escherichia coli TOP10 | 1.75

Q) Hello, please tell me recorded shrunken log2 fold change for this one: `RRIRPRPPRLPRPRPRPEMSPRP`
A) 0.147
